- protocol.details: RPL19A-GFP modulators, yeast TOR pathway, confirmation, cell-based, S. cerevisiae, flow cytometry, cherry picks, mother/daughter gates (AID 2270)
- details: S. cerevisiae RPL19A-GFP strain, 3 h, measured here: mother cell gate, at 10 µM, stronger effect = lower value, 100 = same GFP as DMSO wells
measure: GFP response vs DMSO (%)

                                   molecule               measure  measurement_units  reported_measurement
0  CCOC(=O)c1ccc2nc(Nc3nc4ccc(F)cc4s3)sc2c1  GFP response vs DMSO                  %                  99.3
1  O=C1c2cccc3c(N4CCCCC4)ccc(c23)C(=O)N1CCO  GFP response vs DMSO                  %                  94.9
2       COc1ccccc1C(=O)NNC(=S)NC(=O)c1cccs1  GFP response vs DMSO                  %                   107
3  COCCN(CCOC)S(=O)(=O)c1ccc(C(=O)Nc2nnc(C)o2)cc1  GFP response vs DMSO                  %                   101
4  C/C(=N\NC(=O)c1ccc(Cl)c(Cl)c1)c1cccc(NC(=O)C(C)C)c1  GFP response vs DMSO                  %                   101
5        Clc1ccc(-n2nnnc2Sc2ncnc3sccc23)cc1  GFP response vs DMSO                  %                  98.8
6  Cc1ccc(NC(=O)c2ccc(Cl)c(N3C(=O)C=CC3=O)c2)cc1  GFP response vs DMSO                  %                  69.8
7  COc1cccc(C2CC(c3c(-c4ccccc4)c4cc(Cl)ccc4[nH]c3=O)=NN2S(C)(=O)=O)c1OC (stereo not given)  GFP response vs DMSO                  %                    95
8  O=C(Nc1cc(Sc2ccccn2)cc([N+](=O)[O-])c1)c1cccc(Cl)c1  GFP response vs DMSO                  %                  96.3
9  O=C(CSc1ccc(Cl)cc1)Nc1cccc(-c2nc3ccccc3[nH]2)c1  GFP response vs DMSO                  %                  97.8

The reported numbers originate from PubChem BioAssay.
